meta.source: patent US20230235072A1

TARGET: T1, human transferrin receptor (TfR) ectodomain (ECD) (human, UniProt P02786 121-760, biotinylated where captured on streptavidin)
T1 construct: also called human TfR; huTfR
T1 sequence (P02786 121-760): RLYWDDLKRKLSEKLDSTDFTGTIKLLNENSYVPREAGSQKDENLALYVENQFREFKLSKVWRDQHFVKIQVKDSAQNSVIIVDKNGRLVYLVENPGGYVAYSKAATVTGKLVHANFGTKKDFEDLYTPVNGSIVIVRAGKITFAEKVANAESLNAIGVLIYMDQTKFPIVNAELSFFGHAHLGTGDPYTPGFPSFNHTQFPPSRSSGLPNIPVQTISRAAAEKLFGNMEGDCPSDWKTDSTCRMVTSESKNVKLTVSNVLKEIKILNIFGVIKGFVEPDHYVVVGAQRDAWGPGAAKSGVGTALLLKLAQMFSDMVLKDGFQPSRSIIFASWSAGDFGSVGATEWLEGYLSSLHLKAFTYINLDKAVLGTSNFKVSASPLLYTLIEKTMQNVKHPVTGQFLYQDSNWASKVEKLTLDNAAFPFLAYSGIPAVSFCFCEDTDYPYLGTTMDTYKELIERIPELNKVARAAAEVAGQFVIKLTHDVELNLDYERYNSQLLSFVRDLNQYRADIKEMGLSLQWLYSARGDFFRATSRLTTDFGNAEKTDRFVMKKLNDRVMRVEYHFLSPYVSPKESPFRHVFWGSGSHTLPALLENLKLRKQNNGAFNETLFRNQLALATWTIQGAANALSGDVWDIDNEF
PROTOCOL_NOTES: ELISA, Fc-Fab fusion titrated on plate-coated human TfR; OD650
MEASURE_NAME: binding result

**Query** Which binding result is reported for this binder? Clone CH2C.5 (designed binder) PCPAPELLGGPSVFLFPPKPKDTLMISRTPEVTCVVVDPQTVPWEVKFNWYVDGVEVHNAKTKPREEEYYSNYRVVSVLTVLHQDWLNGKEYKCKVSNKALPAPIEKTISKAKGQPREPQVYTLPPSRDELTKNQVSLTCLVKGFYPSDIAVEWESNGQPENNYKTTPPVLDSDGSFFLYSKLTVDKSRWQQGNVFSCSVMHEALHNHYTQKSLSLSPGK
**Result** binds

**Query** Which binding result reading was recorded for the binder Clone CH2C.1 (designed binder) PCPAPELLGGPSVFLFPPKPKDTLMISRTPEVTCVVVDPQTPPWEVKFNWYVDGVEVHNAKTKPREEEYYTYYRVVSVLTVLHQDWLNGKEYKCKVSNKALPAPIEKTISKAKGQPREPQVYTLPPSRDELTKNQVSLTCLVKGFYPSDIAVEWESNGQPENNYKTTPPVLDSDGSFFLYSKLTVDKSRWQQGNVFSCSVMHEALHNHYTQKSLSLSPGK ?
**Result** binds
